B1: library; numbered along this chain (parent)
chain: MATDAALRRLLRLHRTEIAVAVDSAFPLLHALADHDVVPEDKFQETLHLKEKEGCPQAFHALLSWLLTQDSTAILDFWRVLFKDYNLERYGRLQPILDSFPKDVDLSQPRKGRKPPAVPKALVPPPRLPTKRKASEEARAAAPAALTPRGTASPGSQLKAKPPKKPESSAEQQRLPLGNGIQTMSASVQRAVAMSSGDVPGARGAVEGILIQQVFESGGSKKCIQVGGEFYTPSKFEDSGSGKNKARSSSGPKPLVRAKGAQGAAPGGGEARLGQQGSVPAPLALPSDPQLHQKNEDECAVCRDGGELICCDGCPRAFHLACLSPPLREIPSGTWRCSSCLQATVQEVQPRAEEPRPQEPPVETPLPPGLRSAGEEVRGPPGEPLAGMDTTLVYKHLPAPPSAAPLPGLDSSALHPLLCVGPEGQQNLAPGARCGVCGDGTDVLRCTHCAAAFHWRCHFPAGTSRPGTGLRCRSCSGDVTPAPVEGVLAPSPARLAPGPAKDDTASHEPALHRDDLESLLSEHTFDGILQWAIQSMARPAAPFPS

# Variants of: B1
# EXPERIMENT_SUMMARY: AIRE transcriptional activation functional score (insulin promoter-GFP; nonsense median 0, synonymous median 1) (normalised score); higher = higher AIRE activity (more reporter activation)
# PARTICULARS: with insulin promoter-GFP reporter in HEK293
Reported AIRE transcriptional activation functional score values for the following variants.
OBSERVATION_TYPE: AIRE transcriptional activation functional score

# VARIANT_DESCRIPTOR, NUMERIC_VALUE
records = [
    ("L366I", 0.894),
    ("R272S", 1.02),
    ("E353N", 0.963),
    ("G197K", 0.734),
    ("R203V", 1.57),
    ("K102I", 1.56),
    ("Q426V", 1.29),
    ("P315K", 0.481),
    ("P176N", 0.411),
    ("L366E", 1.32),
    ("E423F", 1.02),
    ("P254F", 0.266),
    ("P115A", 0.798),
    ("E307D", 0.973),
    ("S372H", 1.13),
    ("A432N", -0.334),
    ("L470W", 1.38),
    ("V479E", 1.39),
    ("L488R", 0.722),
    ("A399W", 1.2),
    ("Q94P", 0.0425),
    ("E508A", 0.896),
]
